Tested on: Plasmodium falciparum
assay-method-text: GSK_TCMDC: Inhibition of Plasmodium falciparum 3D7 in whole red blood cells, using parasite LDH activity as an index of growth. Test compounds present at 2uM
Format: functional
Each item that follows carries a reported Inhibition.
Give a bare numeral; the unit % is implied.

Answered examples (5):
Lookup: Given the entry O=C(NCc1cccc2ccccc12)c1ccc(CNC2CCN(Cc3ccccc3)CC2)cc1.O=C(O)C(F)(F)F , what Inhibition was observed with Plasmodium falciparum?
Found: 100

Lookup: Given the entry COCCN1CCC(CNCC(C)(C)c2nc(-c3ccc(Cl)c(O)c3)c(-c3ccncc3)[nH]2)CC1.Cl , what Inhibition was observed with Plasmodium falciparum?
Found: 100

Lookup: Given the entry CCN(CC)CCOc1c(Cl)cc(Cl)cc1CNCCCNc1cc(=O)c2ccccc2[nH]1 , what Inhibition was observed with Plasmodium falciparum?
Found: 97

Lookup: Given the entry O=S(=O)(Nc1ccc(CCN2CCC(N3CCCCC3)CC2)cc1)c1ccccc1C(F)(F)F , what Inhibition was observed with Plasmodium falciparum?
Found: 95

Lookup: Given the entry OC(CNc1ccnc(Nc2ccc(Cl)cc2)n1)c1ccccc1C(F)(F)F (centres undefined) , what Inhibition was observed with Plasmodium falciparum?
Found: 98

---
Lookup: Given the entry NS(=O)(=O)c1ccc(CNc2ccc3ncc(-c4ccc(Cl)cc4)n3n2)cc1 , what Inhibition was observed with Plasmodium falciparum?
Found: 96

Lookup: Given the entry O=C(Nc1cccc(-c2cccc(-c3nc4ccccc4[nH]3)c2)c1)c1csnn1 , what Inhibition was observed with Plasmodium falciparum?
Found: 90

Lookup: Given the entry N#Cc1cncc(-c2nc3c(N4CCC(Cc5ccccc5)CC4)cccc3n2CCNCc2ccccc2)c1.O=C(O)C(F)(F)F , what Inhibition was observed with Plasmodium falciparum?
Found: 99

Lookup: Given the entry COc1ccc(NC(=O)Nc2ccc(Nc3nc(C)cc(N4CCCC4)n3)cc2)cc1 , what Inhibition was observed with Plasmodium falciparum?
Found: 100
